Molecular target: T1, soluble b5R (24-301) (mouse, UniProt Q9DCN2 24-301)
T1 construct: source: E. coli BL21(DE3) (pET vector), purified (procedures similar to those for the full-length proteins)
T1 sequence (looked up): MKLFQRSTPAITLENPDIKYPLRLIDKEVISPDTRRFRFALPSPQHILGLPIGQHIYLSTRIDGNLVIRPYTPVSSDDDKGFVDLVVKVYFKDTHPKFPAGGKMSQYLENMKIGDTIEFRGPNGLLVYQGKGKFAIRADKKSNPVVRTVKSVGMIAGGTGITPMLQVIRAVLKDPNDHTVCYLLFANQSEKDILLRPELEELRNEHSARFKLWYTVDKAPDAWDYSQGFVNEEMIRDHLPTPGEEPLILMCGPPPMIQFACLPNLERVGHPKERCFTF
Assay: BLI; Octet, 30 °C, 1000 rpm; soluble cyt b5 coupled to AR2G (amine reactive) biosensors; analytes soluble b5R or SCD1 at 5, 2.5 and 1.25 µM; FPLC buffer (20 mM HEPES pH 7.5, 150 mM NaCl, 1 mM DDM) plus 0.1% BSA; KD from kon and koff of 1-exponential fits
Details: both partners purified
Readout type: pKd
Value format note: pKd is -log10 of concentration (mol/L); just state the number.

Look over these answered cases.
{"Binder": "soluble cyt b5 (4-89), wild type (domain or fragment, mouse, UniProt P56395 4-89, looked up, cytochrome b5, mouse, UniProt P56395, soluble domain, residues 4-89; coupled by amines to AR2G biosensors; also called cyt b5 (WT); source: E. coli BL21(DE3) (pET vector), purified (procedures similar to those for the full-length proteins)) QSDKDVKYYTLEEIQKHKDSKSTWVILHHKVYDLTKFLEEHPGGEEVLREQAGGDATENFEDVGHSTDARELSKTYIIGELHPDDR", "pKd": 5.57}
{"Binder": "soluble cyt b5 (4-89) E49A (domain or fragment, mouse, UniProt P56395 4-89, looked up, cytochrome b5, mouse, UniProt P56395, soluble domain, residues 4-89; coupled by amines to AR2G biosensors; also called cyt b5 (E49A); source: E. coli BL21(DE3) (pET vector), purified (procedures similar to those for the full-length proteins)) QSDKDVKYYTLEEIQKHKDSKSTWVILHHKVYDLTKFLEEHPGGEAVLREQAGGDATENFEDVGHSTDARELSKTYIIGELHPDDR", "pKd": 5.07}

Switching to the query record.
Which pKd value is on record for soluble cyt b5 (4-89) E43A (domain or fragment, mouse, UniProt P56395 4-89, looked up, cytochrome b5, mouse, UniProt P56395, soluble domain, residues 4-89; coupled by amines to AR2G biosensors; also called cyt b5 (E43A); source: E. coli BL21(DE3) (pET vector), purified (procedures similar to those for the full-length proteins)) QSDKDVKYYTLEEIQKHKDSKSTWVILHHKVYDLTKFLEAHPGGEEVLREQAGGDATENFEDVGHSTDARELSKTYIIGELHPDDR ?
5.02
